- Method Description: Half life in female Sprague-Dawley rat at 1.5 mg/kg, iv administered as single dose by LC-MS/MS analysis
- Format: ADME, organism-based
- Conditions Used: in vivo

# Compound, half-life / min
rows = [
    ("COC(=O)N1N=C(c2cccc(C)c2)CC1c1cc(OC)c(OC)c(OC)c1 (stereo unspecified)", 55.8),
]

###

- Method Description: AUC (0 to t) in Sprague-Dawley rat at 1.5 mg/kg, iv administered as single dose by LC-MS/MS analysis
- Format: ADME, organism-based
- Conditions Used: in vivo

# Compound, AUC(0-t) [ng·h/mL]
rows = [
    ("COC(=O)N1N=C(c2cccc(C)c2)CC1c1cc(OC)c(OC)c(OC)c1 (stereo unspecified)", 397),
]
